Target: RSV fusion glycoprotein (RSV-F) (respiratory syncytial virus)
Assay: SPR; F protein loaded on streptavidin sensors, mAb in solution
Outcome measure: Kd (nM)
Write the number in nM without appending the unit.

Example entries begin here.
# Binder, Outcome measure, Quantitative readout
data = [
    ("MPK151 (antibody, V domains shown, VH and VL only) VH: EVQLVESGGGLVKPGGSLRLSCAASGLTISGYYMIWIRQAPGKGLEWISDISASSTYTDYAESVKGRFSISRDNGQNTVYLQMNSLRAEDTAVYYCATEQTPSPGPFDLWGQGTLVTVSS VL: QSVLTQPPSVSGAPGQKITISCTGGSSNFGAGYDVHWYQQFPGTSPKLLIYRNTFRPSGVPDRFSGSKSGTSASLAITGLQAEDEADYYCQSYDRSLSGWVFGGGTKLTVL", "Kd", 0.08),
    ("MPK127 (antibody, V domains shown, VH and VL only) VH: QVQLVISGGGLVKPGGSLRLSCAASGFRIDSFSLNWVRQAPGKGLEWLASVSASSSYIDYRDSVAGRFTISRDNAQNSLYLQMDTLRAEDTAVYYCARTNGYETGSFDVWGQGTLVTVAS VL: QSVLTQPPSVSGAPGQRVTISCTGSSSNIGAGYDVHWYQQLPGKAPKLLINANNNRPSGVPDRFSGSNSGTSASLAITGLQAEDEADYYCQSYDKTLSGYVFGLGTTVTVL", "Kd", 1.7),
    ("MPK132-v1 (antibody, V domains shown, VH and VL only) VH: EVQLVESGGGLVKPGGSLRLSCEASGISLSGYYMIWIRQAPGKGLEWISSISSSSNYIDYADSVKGRFTISRHNGQNTLYLQMNSLRVEDTAVYFCATEQTPSPGPFELWGQGILVTVSS VL: QSVVTQPPSVSGAPGQRVTIFCTGTSSNIGTGYDVHWYQQFPGTSPKLLIYRNTNRPSGVPDRFSGSKSGSSASLAIAGLQAEDEADYYCQSYDRSVSGWVFGGGTKLTVL", "Kd", 0.47),
    ("MPK162 (antibody, V domains shown, VH and VL only) VH: EVQLVESGGGLVKPGDSLRLSCAASGFSLSSYYMFWIRQAPGKGLEWVSDISGGSTFTNYADSVKGRFTISRDNAKKVLYLQMNSLRVDDSAVYYCVRGSSISPNWFESWGQGALVTVSS VL: QSVLTQPPSVSGAPGQRVTISCTGTSSNIGAGYDVHWYQQVPGTAPKLLIYGNSNRPSGVPDRFSGSKSGTAASLAINGLQTEDEAEYYCQSYDRSLTGSYVFGSGTRVFVR", "Kd", 100),
]

Consider the record given below.
Task item: Report Kd for MPK196 (antibody, V domains shown, VH and VL only) VH: QVQLVESGGGLVKPGGSLRLSCAASRFKFGDYYMSWIRQAPGKGLEWVSNISPSSSYTNYADSVKGRFTISRDNANNLLYLQMNSLRAEDTAVYYCARESCSGGSCSLHGMDVWGQGTTVTVAS VL: QSVLTQPPSVSGAPGQRVTISCTGSSSNIGAGYDVHWYQQLPGTAPKLLIYDNSNRPSGVPDRFSGSKSGTSASLAITGLRAEDDADYYCQSYDRSLGGSIFGGGTKLTVL please.
Reply: 0.001

Hey, just so you know, these numbers are from patent US20260028391A1.
